system: blackgrass (Alopecurus myosuroides); test: Test B pre-/postemergence; type: in vivo; details: Rate 500 g/ha, Postemergence
reported_property: Plant response rating, Blackgrass
Could you keep your reply to the number by itself?

Consider the following illustrative entries.
GET /values?readout=Plant response rating, Blackgrass&item= "Cc1cnc(-n2ccc(C(F)(F)F)n2)nc1C(=O)c1cccc(OC(F)(F)F)c1"
6

Same for "Cc1cnc(-n2ccc(C(F)(F)F)n2)nc1Cc1cccc(C(F)(F)F)c1"
9

Queued: "Cc1cnc(-c2ccc(C(F)(F)F)cc2)nc1C(=O)c1cccc(C(F)(F)F)c1"
9

Below: the item to evaluate.
Dear colleague, I am looking for the recorded Plant response rating, Blackgrass of the following molecule: "Cc1cnc(-n2ccc(C(F)(F)C(F)(F)F)n2)nc1C(=O)c1cccc(C(F)(F)F)c1"
5

---

Listed here: items and their measured Plant response rating, Soybean.
tested on: soybean (Glycine max); assay: Test B pre-/postemergence; type: in vivo; conditions: Rate 62 g/ha, Postemergence
Quick one: just the number, no unit, thanks!

Consider the following illustrative entries.
Request the reported Plant response rating, Soybean associated with "Cc1cnc(-c2cccc(C(F)(F)F)c2)nc1Cc1cccc(C(F)(F)F)c1"
3

Request: "Cc1cnc(-n2cnc(C(F)(F)F)n2)nc1Cn1ccc(C(F)(F)F)n1"
9

Try "Cc1cnc(-c2ccc(Cl)cc2)nc1Cn1ccc(C(F)(F)F)n1" next.
6

Next:
Plant response rating, Soybean lookup needed for "Cc1cnc(-c2ccc(C(F)(F)F)cc2)nc1Cn1cc(I)cn1" , thanks.
3

Follow-up entry: "Cc1cnc(-c2ccc(Cl)cc2)nc1Cc1cccc(C#N)c1"
1

---

tested on: bedstraw (Galium aparine); assay: Test B pre-/postemergence; type: in vivo; conditions: Rate 62 g/ha, Postemergence
reported_property: Bedstraw plant response rating
Please reply with the number alone, leaving off any unit.

Look over these answered cases.
Report Bedstraw plant response rating for O=C(c1cccc(C(F)(F)F)c1)c1ccnc(-n2ccc(C(F)(F)F)n2)n1 [Compound 70] please.
1

Subsequent entry: Cc1cnc(-c2ccc(C(F)(F)F)cc2)nc1Cn1cc(Br)cn1 [Compound 54]
3

Lookup Cc1cnc(-n2ccc(C(F)(F)F)n2)nc1C(=O)c1cccc(OC(F)(F)F)c1 [Compound 66]
2

Now look at this entry.
Value lookup for Bedstraw plant response rating; key = CCc1cnc(-n2ccc(C(F)(F)F)n2)nc1C(=O)c1cccc(C(F)(F)F)c1 [Compound 69]
9

---

test system: common ragweed (Ambrosia elatior); assay: Test C; type: in vivo; conditions: PREEMERGENCE, Rate 140 g/ha
Measured Plant response rating, Common ragweed of individual entries
API doc: respond with a numeric literal and nothing else, no unit.

Fill in the blank: the reported Plant response rating, Common ragweed of "Cc1cnc(-c2ccc(C(F)(F)F)cc2)nc1Cc1cccc(OC(F)(F)F)c1" is ____.
75

More entries:
Consider the compound "CCc1cnc(-n2ccc(C(F)(F)F)n2)nc1Cc1cccc(C(F)(F)F)c1" and give its measured Plant response rating, Common ragweed.
80

Queued: "Cc1cnc(-n2ccc(C(F)(F)F)n2)nc1C(=O)c1cccc(OC(F)(F)F)c1"
30

Try this compound too: "Cc1cnc(-c2ccc(C(F)(F)F)cc2)nc1Cc1cccc(C(F)(F)F)c1"
100

Entry to check: "Cc1cnc(-c2ccc(C(F)(F)F)cc2)nc1Cn1ccc(C(F)(F)F)n1"
75

Now this one: Cc1cnc(-c2ccc(C(F)(F)F)cc2)nc1C(Cl)c1cccc(C(F)(F)F)c1 (racemic)
20
